Biological target: Dihydroorotate dehydrogenase (quinone), mitochondrial (Plasmodium falciparum (isolate 3D7))
Assay: PfDHODH enzyme inhibitors, primary screen, biochemical, C-terminal His tag, absorbance 600 nm (AID 1175);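 note: recombinant parasite enzyme with a five histidine tag at its C terminus; test concentration not given here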
Conditions: DCIP absorbance 600 nm, called active from +8 up or from −8 down
Calls of active or inactive are those of the source.
Write down the outcome that applies. Available outcomes: class 1 = active, class 0 = inactive

Query: Would you mind telling me which call this test gave `COCCOC(=O)N1C(=O)[C@@]2(c3cc(C#Cc4ccc(OC)cc4)ccc31)[C@H](C(=O)N1CCN(c3ncccn3)CC1)[C@H]1C(=O)O[C@H](c3ccccc3)[C@H](c3ccccc3)N1[C@@H]2c1ccc(O)cc1` ?
Response: class 0

Query: Would you mind telling me which call this test gave CS(=O)(=O)CCOC(=O)C1=CC(CCCO)=CC(c2cccs2)N(Cc2cc3c(cc2Br)OCO3)C=C1C(=O)OCCS(C)(=O)=O (stereo not drawn) ?
Response: class 0

Query: Would you mind telling me which call this test gave `O=C1O[C@@H](c2ccccc2)[C@@H](c2ccccc2)N2[C@@H](c3ccc(OCCO)cc3)[C@]3(C(=O)Nc4ccc(C#CC5=CCCCC5)cc43)[C@@H](C(=O)O)[C@H]12` ?
Response: class 1
